Recorded values, source paper PMC10397247.

- MEASURED TARGET: T1, 4H2903-AA
- T1 chain: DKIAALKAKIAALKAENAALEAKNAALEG
- ASSAY EXPLANATION: two-hybrid library CCmax;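 further: natural log of median RNA to DNA barcode read ratio; higher means stronger binding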
- APPLIED CONDITIONS: mean of both orientations
MEASURED QUANTITY: interaction score

Take a look at these entries with their results.
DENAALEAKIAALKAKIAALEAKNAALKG [4H1384-AA]; -0.437
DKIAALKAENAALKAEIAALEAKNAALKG [4H2760-AA]; -1.32
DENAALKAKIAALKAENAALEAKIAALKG [4H1878-AA]; -0.956

Consider the following items and state reported interaction score for each.
1. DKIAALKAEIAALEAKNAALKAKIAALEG [4H2621-AA]
2. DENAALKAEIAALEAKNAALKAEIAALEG [4H1593-AA]
3. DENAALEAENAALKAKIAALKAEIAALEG [4H1257-AA]

[1.71, -0.456, -1.62]

Data request, read-out interaction score, for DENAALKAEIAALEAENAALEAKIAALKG [4H1558-AA]
-0.294
